- protocol: Volume of distribution at steady state in nonobese human at 4 mg/kg, iv administered as single dose 30 mins infusion
- Type: ADME, organism-based
- Set-up: dose 4 mg/kg, route intravenous
- condition-summary: in vivo, read-out: Vdss
quantity-kind: Vd
Quote the value and follow it with the unit of measurement.

Q: Identify measured Vd associated with CCCCCCCCCC(=O)N[C@@H](Cc1c[nH]c2ccccc12)C(=O)N[C@H](CC(N)=O)C(=O)N[C@@H](CC(=O)O)C(=O)N[C@@H]1C(=O)NCC(=O)N[C@@H](CCCN)C(=O)N[C@@H](CC(=O)O)C(=O)N[C@H](C)C(=O)N[C@@H](CC(=O)O)C(=O)NCC(=O)N[C@H](CO)C(=O)N[C@@H]([C@H](C)CC(=O)O)C(=O)N[C@@H](CC(=O)c2ccccc2N)C(=O)O[C@@H]1C
Result: 0.11 L/kg

---

- protocol: Plasma concentration in morbidly obese adult human at 4 mg/kg, iv administered as single dose 30 mins infusion measured after 24 hrs
- Type: ADME, organism-based
- Parameters: dose 4 mg/kg, route intravenous
quantity-kind: concentration at 24 h
Please append the unit to your numeric answer.

Q: Report concentration at 24 h for CCCCCCCCCC(=O)N[C@@H](Cc1c[nH]c2ccccc12)C(=O)N[C@H](CC(N)=O)C(=O)N[C@@H](CC(=O)O)C(=O)N[C@@H]1C(=O)NCC(=O)N[C@@H](CCCN)C(=O)N[C@@H](CC(=O)O)C(=O)N[C@H](C)C(=O)N[C@@H](CC(=O)O)C(=O)NCC(=O)N[C@H](CO)C(=O)N[C@@H]([C@H](C)CC(=O)O)C(=O)N[C@@H](CC(=O)c2ccccc2N)C(=O)O[C@@H]1C
Result: 5880 ng/mL

---

- protocol: Cmax in healthy human subjects at 10 mg/kg, iv administered as 30 mins infusion every 24 hrs measured on day 4
- Format: ADME, organism-based
- Design: dose 10 mg/kg, route intravenous
- condition-summary: in vivo
quantity-kind: Cmax (µg/mL)
A number alone suffices; assume µg/mL.

Q: Name the recorded Cmax of the item CCCCCCCCCC(=O)N[C@@H](Cc1c[nH]c2ccccc12)C(=O)N[C@H](CC(N)=O)C(=O)N[C@@H](CC(=O)O)C(=O)N[C@@H]1C(=O)NCC(=O)N[C@@H](CCCN)C(=O)N[C@@H](CC(=O)O)C(=O)N[C@H](C)C(=O)N[C@@H](CC(=O)O)C(=O)NCC(=O)N[C@H](CO)C(=O)N[C@@H]([C@H](C)CC(=O)O)C(=O)N[C@@H](CC(=O)c2ccccc2N)C(=O)O[C@@H]1C in your answer.
Result: 141

---

- protocol: Unbound fraction in healthy human plasma at 8 mg/kg, iv administered as 30 mins infusion every 24 hrs measured on day 7
- Type: ADME, organism-based
- Design: dose 8 mg/kg, route intravenous
quantity-kind: fraction unbound at 7 day
Answer field: number only, no words.

Q: Could you please provide reported fraction unbound at 7 day for CCCCCCCCCC(=O)N[C@@H](Cc1c[nH]c2ccccc12)C(=O)N[C@H](CC(N)=O)C(=O)N[C@@H](CC(=O)O)C(=O)N[C@@H]1C(=O)NCC(=O)N[C@@H](CCCN)C(=O)N[C@@H](CC(=O)O)C(=O)N[C@H](C)C(=O)N[C@@H](CC(=O)O)C(=O)NCC(=O)N[C@H](CO)C(=O)N[C@@H]([C@H](C)CC(=O)O)C(=O)N[C@@H](CC(=O)c2ccccc2N)C(=O)O[C@@H]1C ? Thanks!
Result: 0.09

---

- protocol: AUC ( 0 to infinity) in cancer patient with neutropenic fever at 6 mg/kg, iv administered as 30 mins infusion every 24 hrs
- Type: ADME, organism-based
- Design: time infinity, dose 6 mg/kg, route intravenous
- condition-summary: human, plasma
quantity-kind: AUC(0-inf) (µg·h/mL)
Write the value in µg·h/mL as a bare number.

Q: Please report the measured AUC(0-inf) for CCCCCCCCCC(=O)N[C@@H](Cc1c[nH]c2ccccc12)C(=O)N[C@H](CC(N)=O)C(=O)N[C@@H](CC(=O)O)C(=O)N[C@@H]1C(=O)NCC(=O)N[C@@H](CCCN)C(=O)N[C@@H](CC(=O)O)C(=O)N[C@H](C)C(=O)N[C@@H](CC(=O)O)C(=O)NCC(=O)N[C@H](CO)C(=O)N[C@@H]([C@H](C)CC(=O)O)C(=O)N[C@@H](CC(=O)c2ccccc2N)C(=O)O[C@@H]1C
Result: 427

---

- protocol: Half life in healthy adult human at 6 mg/kg, iv administered as single dose 30 mins infusion
- Type: ADME, organism-based
- Set-up: dose 6 mg/kg, route intravenous
- condition-summary: in vivo
quantity-kind: half-life (h)
Express it in h; write the number only.

Q: Indicate the recorded half-life value for this compound: CCCCCCCCCC(=O)N[C@@H](Cc1c[nH]c2ccccc12)C(=O)N[C@H](CC(N)=O)C(=O)N[C@@H](CC(=O)O)C(=O)N[C@@H]1C(=O)NCC(=O)N[C@@H](CCCN)C(=O)N[C@@H](CC(=O)O)C(=O)N[C@H](C)C(=O)N[C@@H](CC(=O)O)C(=O)NCC(=O)N[C@H](CO)C(=O)N[C@@H]([C@H](C)CC(=O)O)C(=O)N[C@@H](CC(=O)c2ccccc2N)C(=O)O[C@@H]1C
Result: 8.06

---

- protocol: Cmax in moderately obese adult human at 4 mg/kg, iv administered as single dose 30 mins infusion
- Assay type: ADME, organism-based
- Set-up: dose 4 mg/kg, route intravenous
- condition-summary: in vivo
quantity-kind: Cmax (µg/mL)
State the answer as a number, implicitly in µg/mL.

Q: Give reported Cmax value for CCCCCCCCCC(=O)N[C@@H](Cc1c[nH]c2ccccc12)C(=O)N[C@H](CC(N)=O)C(=O)N[C@@H](CC(=O)O)C(=O)N[C@@H]1C(=O)NCC(=O)N[C@@H](CCCN)C(=O)N[C@@H](CC(=O)O)C(=O)N[C@H](C)C(=O)N[C@@H](CC(=O)O)C(=O)NCC(=O)N[C@H](CO)C(=O)N[C@@H]([C@H](C)CC(=O)O)C(=O)N[C@@H](CC(=O)c2ccccc2N)C(=O)O[C@@H]1C
Result: 57.8

---

- protocol: Renal clearance in nonobese human at 4 mg/kg, iv administered as single dose 30 mins infusion
- Assay type: ADME, organism-based, Kidney
- Parameters: dose 4 mg/kg, route intravenous
- condition-summary: in vivo, read-out: CL_renal (converted)
quantity-kind: CL renal at 0.5 h (mL/h/kg)
Give the number; mL/h/kg is assumed, so skip it.

Q: Indicate the recorded CL renal at 0.5 h value for this compound: CCCCCCCCCC(=O)N[C@@H](Cc1c[nH]c2ccccc12)C(=O)N[C@H](CC(N)=O)C(=O)N[C@@H](CC(=O)O)C(=O)N[C@@H]1C(=O)NCC(=O)N[C@@H](CCCN)C(=O)N[C@@H](CC(=O)O)C(=O)N[C@H](C)C(=O)N[C@@H](CC(=O)O)C(=O)NCC(=O)N[C@H](CO)C(=O)N[C@@H]([C@H](C)CC(=O)O)C(=O)N[C@@H](CC(=O)c2ccccc2N)C(=O)O[C@@H]1C
Result: 5.88

---

- protocol: Renal clearance in healthy adult human at 6 mg/kg, iv administered as single dose 30 mins infusion
- Format: ADME, organism-based, Kidney
- Set-up: dose 6 mg/kg, route intravenous
- condition-summary: in vivo, read-out: CL_renal (converted)
quantity-kind: CL renal at 0.5 h (mL/h/kg)
Field format: number, assumed mL/h/kg, no unit text.

Q: Quick one: give measured CL renal at 0.5 h for CCCCCCCCCC(=O)N[C@@H](Cc1c[nH]c2ccccc12)C(=O)N[C@H](CC(N)=O)C(=O)N[C@@H](CC(=O)O)C(=O)N[C@@H]1C(=O)NCC(=O)N[C@@H](CCCN)C(=O)N[C@@H](CC(=O)O)C(=O)N[C@H](C)C(=O)N[C@@H](CC(=O)O)C(=O)NCC(=O)N[C@H](CO)C(=O)N[C@@H]([C@H](C)CC(=O)O)C(=O)N[C@@H](CC(=O)c2ccccc2N)C(=O)O[C@@H]1C
Result: 3.84

---

- protocol: Half life in healthy human subjects at 12 mg/kg, iv administered as 30 mins infusion every 24 hrs measured on day 1
- Assay type: ADME, organism-based
- Parameters: dose 12 mg/kg, route intravenous
- condition-summary: in vivo
quantity-kind: half-life (h)
Response body: numeric value in h, unit text excluded.

Q: Supply reported half-life belonging to this compound: CCCCCCCCCC(=O)N[C@@H](Cc1c[nH]c2ccccc12)C(=O)N[C@H](CC(N)=O)C(=O)N[C@@H](CC(=O)O)C(=O)N[C@@H]1C(=O)NCC(=O)N[C@@H](CCCN)C(=O)N[C@@H](CC(=O)O)C(=O)N[C@H](C)C(=O)N[C@@H](CC(=O)O)C(=O)NCC(=O)N[C@H](CO)C(=O)N[C@@H]([C@H](C)CC(=O)O)C(=O)N[C@@H](CC(=O)c2ccccc2N)C(=O)O[C@@H]1C
Result: 7.8
